B1: Twister Ribozyme (parent)
chain: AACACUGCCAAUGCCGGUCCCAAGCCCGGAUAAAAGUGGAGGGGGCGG

Variants of: B1
procedure_summary: self-cleavage, relative activity (ratio to wild type); higher = more cleavage; co-transcriptional
// self-cleavage lookup, one value per entry
Would you mind answering with just the numeric figure?

self-cleavage for A40C G41U ?
0.157

self-cleavage for U6G G13A ?
0.086

self-cleavage for C19G G42A ?
0.0847

self-cleavage for C5A A11U ?
0.351

self-cleavage for A11U U37A ?
1.01

self-cleavage for C26A A33G ?
0.257

self-cleavage for G41C G43A ?
0.141

self-cleavage for A2U C8U ?
0.109

self-cleavage for C8A U18G ?
0.0805

self-cleavage for G13U C27U ?
0.212

More entries:
self-cleavage for A11C G44A ?
0.955

self-cleavage for A10C C20A ?
0.199

self-cleavage for A32U G42C ?
0.437

self-cleavage for A11U C21G ?
0.0514

self-cleavage for A11G C26G ?
0.234

self-cleavage for C3A G41C ?
0.07

self-cleavage for A1G A23G ?
0.213

self-cleavage for C25A G45U ?
0.0929

self-cleavage for A34C G39A ?
0.155

self-cleavage for A4U C21U ?
0.0656
